Biological target: MSLN抗原 (Mesothelin, MSLN-Biotin) (human) (UniProt Q13421)
Assay: BLI (Octet RED96), MSLN-Biotin on AR2G sensor, TG1 periplasmic scFv as analyte
Each item that follows carries a reported 响应.
Enter the number alone.

binder: 2D9 (scFv, V domains shown) VH: QVQLQQPGAELVKPGASMKLSCKASGYTFTSYWMHWVKQRPGQGLEWIGMIHAQSDNTIYYEKFKSKATLTVDKSSSTAYMQLSSLTSEDSAVYYCAIIITPVVPKFDYWGQGTTLTVSS VL: DIVMTQSHQFMSTSVGDRVSVTCKASHDVGTSVAWYQQKPGQSPKLLIYWASTRHTGVPDRFTGSGSGTDFTLTISNVQSEDLADYFCQQYSSYPLTFGAGTKLELK
value-type: 响应
result: 1.25
--
binder: 7E10 (scFv, V domains shown) VH: QVQLQQPGAELVKPGASMKLSCKASGYTFTSYWMHWVKQRPGQGLEWIGMIHPNSDNTIYYEKFKSKATLTVDKSSSTAYMQLSSLTSEDSAVYYCAIIITPVVPKFDYWGQGTTLTVSS VL: DIVMTQSHQFMSTSVGDRVSVTCKASHDVGTSVAWYQQKPGQSPKLLIYNASSRGGGVPDRFTGSGSGTDFTLTISNVQSEDLADYFCQQYSSYPLTFGAGTKLELK
value-type: 响应
result: 1.02
--
binder: 9F5 (scFv, V domains shown) VH: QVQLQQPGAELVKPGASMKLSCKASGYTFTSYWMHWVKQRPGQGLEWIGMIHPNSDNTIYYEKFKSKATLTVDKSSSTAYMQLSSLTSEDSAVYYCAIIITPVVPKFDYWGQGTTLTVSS VL: DIVMTQSHQFMSTSVGDRVSVTCKASHDVGTSVAWYQQKPGQSPKLLIYQASKKEKGVPDRFTGSGSGTDFTLTISNVQSEDLADYFCQQYSSYPLTFGAGTKLELK
value-type: 响应
result: 0.97
--
binder: 3F9 (scFv, V domains shown) VH: QVQLQQPGAELVKPGASMKLSCKASGYTFTSYWMHWVKQRPGQGLEWIGMIHPNSQNTIYYEKFKSKATLTVDKSSSTAYMQLSSLTSEDSAVYYCAIIITPVVPKFDYWGQGTTLTVSS VL: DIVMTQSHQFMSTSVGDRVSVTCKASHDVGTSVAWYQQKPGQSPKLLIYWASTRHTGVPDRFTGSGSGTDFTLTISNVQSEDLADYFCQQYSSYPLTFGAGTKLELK
value-type: 响应
result: 1.38

Alright, here's another binder for you.
Given the binder 2F9 (scFv, V domains shown) VH: QVQLQQPGAELVKPGASMKLSCKASGYTFTSYWMHWVKQRPGQGLEWIGGIEQNSSETIYYEKFKSKATLTVDKSSSTAYMQLSSLTSEDSAVYYCAIIITPVVPKFDYWGQGTTLTVSS VL: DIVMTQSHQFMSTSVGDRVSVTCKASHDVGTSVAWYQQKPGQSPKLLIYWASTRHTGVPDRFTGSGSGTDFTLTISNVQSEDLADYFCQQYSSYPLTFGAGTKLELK , what is its reported 响应?
0.13

Source listed as patent CN107840891A.
